inhibition at 20 ppm overview
Tested on: Alternaria alternata
Assay: Alternaria alternata in vitro cell test
Type: cell-based
Details: 120 h, 20 ppm of active ingredient, liquid culture, 5 days incubation, read-out: efficacy (inhibition of fungal growth)

Below are worked cases with known answers.
Cc1ccc(C[C@H]2CON=C(c3c(Sc4cccc(Cl)c4)cnc4ccccc34)N2)c(C)c1 (racemic): 90 to 100%
Clc1cccc(Sc2cnc(Cl)cc2C2=NOC[C@@H](Cc3ccc(Cl)cc3Cl)N2)c1 (racemic): 80 to 89%
Cc1cccc(Sc2cnc(Cl)cc2C2=NOC[C@@H](Cc3ccc(Cl)cc3Cl)N2)c1 (racemic): 70 to 79%
Cc1ccc(C[C@H]2CON=C(c3c(Sc4cccc(C(F)(F)F)c4)cnc4ccccc34)N2)c(C)c1 (racemic): 90 to 100%
Cc1ccc(CC2CON=C(c3cc(Cl)nnc3Sc3cccc(C(F)(F)F)c3)N2)c(C)c1 (racemic): 80 to 89%

Switching to the query record.
QUERY: Return inhibition at 20 ppm measured with Alternaria alternata given this compound: Cc1cccc(Sc2cnc3ccccc3c2C2=NOC[C@H](Cc3ccc(C)cc3C)N2)c1 (racemic)
RESULT: 90 to 100%

----------
Tested on: Colletotrichum lindemuthianum
Assay: Colletotrichum lindemuthianum in vitro cell test
Format: cell-based
Conditions: 144 h, 20 ppm of active ingredient, liquid culture, 6 days incubation, read-out: efficacy (inhibition of fungal growth)
endpoint-name: inhibition at 20 ppm

Cc1cccc(Sc2cnc(Cl)cc2C2=NOC[C@@H](Cc3ccc(Cl)cc3Cl)N2)c1 (racemic) [Compound I-011]: 90 to 100%
FC(F)(F)c1cccc(Sc2nnc(Cl)cc2C2=NOC[C@H](Cc3ccc(Cl)cc3Cl)N2)c1 (racemic) [Compound I-016]: 90 to 100%
Cc1ccc(C[C@H]2CON=C(c3c(Sc4cccc(C(F)(F)F)c4)cnc4ccccc34)N2)c(C)c1 (racemic) [Compound I-030]: 90 to 100%
Cc1cccc(Sc2nnc(Cl)cc2C2=NOC[C@@H](Cc3ccc(Cl)cc3Cl)N2)c1 (racemic) [Compound I-028]: 80 to 89%
Cc1ccc(C[C@H]2CON=C(c3c(Sc4cccc(Cl)c4)cnc4ccccc34)N2)c(C)c1 (racemic) [Compound I-024]: 90 to 100%

QUERY: Value lookup for inhibition at 20 ppm; key = Cc1ccc(C[C@H]2CON=C(c3nc(C)ncc3Sc3cccc(OC(F)(F)F)c3)N2)c(C)c1 (racemic) [Compound I-026]
RESULT: 70 to 79%

QUERY: What does the record list as inhibition at 20 ppm for Cc1ccc(C[C@H]2CON=C(c3nc(C)ncc3Sc3cccc(C(F)(F)F)c3)N2)c(C)c1 (racemic) [Compound I-007] ?
RESULT: 90 to 100%

----------
Experiment: Measurement of Log P values by HPLC on reversed phase columns (EEC directive 79/831 Annex V.A8)
Type: physicochemical
Details: Table 3, intermediates of formula (27); method [a]: LC-UV, acidic range, 0.1% formic acid in water and acetonitrile
endpoint-name: chromatographic logP
Response field accepts a number only; no unit should be typed.

C=CCON=C(N)c1c(Br)nnc(C)c1C: 1.28

Now examine the next entry.
QUERY: Can you look up the measured chromatographic logP of `C=CCON=C(N)c1c(Br)nnc2ccccc12` for me?
RESULT: 1.81

----------
Experiment: Measurement of Log P values by HPLC on reversed phase columns (EEC directive 79/831 Annex V.A8)
Assay type: physicochemical
Details: Table 1, compounds of formula (I); method [a]: LC-UV, acidic range, 0.1% formic acid in water and acetonitrile
Reported chromatographic logP values for a set of compounds
Answer with the value's number alone.

Please review the entries below; each comes with its answer.
Cc1ccc([C@H]2CON=C(c3c(Sc4ccc(C(F)(F)F)cc4)nnc4ccccc34)N2)s1 (racemic): 3.81
Cc1ccc(C[C@H]2CON=C(c3c(Sc4cccc(Cl)c4)cnc4ccccc34)N2)c(C)c1 (racemic): 4.46
Cc1ccc([C@H]2CON=C(c3c(Sc4ccccc4Cl)nnc4ccccc34)N2)s1 (racemic): 3.4
Cc1ccc([C@H]2CON=C(c3c(Sc4ccccc4Cl)nnc(C)c3C)N2)s1 (racemic): 2.93
Cc1cc([C@H]2CON=C(c3c(Sc4ccccn4)nnc(C)c3C)N2)c(C)s1 (racemic): 2.32
Cc1ccc([C@H]2CON=C(c3c(Sc4ccccn4)nnc(C)c3C)N2)s1 (racemic): 2.03
Cc1cc([C@H]2CON=C(c3c(Sc4ccccc4)nnc(C)c3C)N2)c(C)s1 (racemic): 3.03
Cc1cc([C@@H]2CON=C(c3c(Sc4cccc(Cl)c4F)nnc(C)c3C)N2)c(C)s1 (racemic): 3.58

QUERY: Recorded chromatographic logP of Cc1ccc(C[C@@H]2CON=C(c3c(Sc4cccc(C(F)(F)F)c4)nnc4ccccc34)N2)c(C)c1 (racemic) , please.
RESULT: 4.66

QUERY: What chromatographic logP value was documented for this compound, Cc1ccc([C@@H]2CON=C(c3c(Sc4ccc(Cl)cc4Cl)nnc(C)c3C)N2)s1 (racemic) ?
RESULT: 3.45

QUERY: Item CCOc1cccc(Sc2nnc(C)c(C)c2C2=NOC[C@@H](c3cc(C)sc3C)N2)c1 (racemic) has what recorded chromatographic logP?
RESULT: 3.44

QUERY: Tell me the measured chromatographic logP of Cc1ccc([C@H]2CON=C(c3c(Sc4ccc(C)c(C)c4)nnc4ccccc34)N2)s1 (racemic) , please.
RESULT: 3.76

QUERY: chromatographic logP for Cc1ccc([C@@H]2CON=C(c3c(Sc4cccc(Cl)c4Cl)nnc(C)c3C)N2)s1 (racemic) ?
RESULT: 3.31

QUERY: Could you share which chromatographic logP value was measured for Cc1ccc(C[C@H]2CON=C(c3c(Sc4cccc(OC(F)(F)F)c4)cnc4ccccc34)N2)c(C)c1 (racemic) ?
RESULT: 4.73

----------
Let's look at some compounds and their measured inhibition at 50 µM.
Test system: Colletotrichum lindemuthianum
Assay: Colletotrichum lindemuthianum in vitro cell test
Assay type: cell-based
Details: 144 h, 50 μMol/l of active ingredient, liquid culture, 6 days incubation, read-out: efficacy (inhibition of fungal growth)

Cc1ccc([C@H]2CON=C(c3c(Sc4cccc(F)c4)nnc(C)c3C)N2)s1 (racemic) [Compound I-125]: 90 to 100%
COc1cccc(Sc2nnc(C)c(C)c2C2=NOC[C@@H](c3cc(C)sc3C)N2)c1 (racemic) [Compound I-079]: 90 to 100%
Cc1cc([C@H]2CON=C(c3c(Sc4ccc(C)c(C)c4)nnc(C)c3C)N2)c(C)s1 (racemic) [Compound I-111]: 90 to 100%

QUERY: Look up inhibition at 50 µM: Cc1ccc([C@H]2CON=C(c3c(Sc4ccccc4Cl)nnc4ccccc34)N2)s1 (racemic) [Compound I-067]
RESULT: 80 to 89%

QUERY: Endpoint output: inhibition at 50 µM of CCOc1cccc(Sc2nnc(C)c(C)c2C2=NOC[C@@H](c3cc(C)sc3C)N2)c1 (racemic) [Compound I-046] . Value?
RESULT: 80 to 89%

QUERY: Reported inhibition at 50 µM for Cc1cc([C@@H]2CON=C(c3c(Sc4cccc(Cl)c4F)nnc(C)c3C)N2)c(C)s1 (racemic) [Compound I-071] : what is it?
RESULT: 90 to 100%

QUERY: Which value of inhibition at 50 µM has been reported for Cc1cccc(Sc2nnc3ccccc3c2C2=NOC[C@H](c3ccc(C)s3)N2)c1 (racemic) [Compound I-062] in the records?
RESULT: 90 to 100%

QUERY: What does the record list as inhibition at 50 µM for Cc1cc([C@@H]2CON=C(c3c(Sc4cccc(Cl)c4)nnc(C)c3C)N2)c(C)s1 (racemic) [Compound I-100] ?
RESULT: 90 to 100%

----------
Assay: Measurement of Log P values by HPLC on reversed phase columns (EEC directive 79/831 Annex V.A8)
Type: physicochemical
Conditions: Table 1, compounds of formula (I); method [a]: LC-UV, acidic range, 0.1% formic acid in water and acetonitrile
endpoint-name: chromatographic logP
# print the numeric value only

Consider the reported chromatographic logP for these compounds:
Cc1cc([C@H]2CON=C(c3c(Sc4cccc(F)c4)nnc(C)c3C)N2)c(C)s1 (racemic): 3.16
Cc1cc([C@@H]2CON=C(c3c(Sc4ccc(C(C)(C)C)cc4)nnc(C)c3C)N2)c(C)s1 (racemic): 4.32

QUERY: Field request: chromatographic logP | item: Cc1cc([C@@H]2CON=C(c3c(Sc4cccc(C(F)(F)F)c4)nnc(C)c3C)N2)c(C)s1 (racemic)
RESULT: 3.72

QUERY: Requested field: chromatographic logP. Item: Cc1ccc([C@H]2CON=C(c3c(Sc4ccccc4)nnc4ccccc34)N2)s1 (racemic)
RESULT: 3.14

----------
Tested on: Colletotrichum lindemuthianum
Test: In vivo preventive test on Colletotrichum lindemuthianum (leaf spot on bean)
Conditions: 168 h, 500 ppm of active ingredient, sprayed on young bean plants 24 h before inoculation, evaluated 7 days after inoculation, read-out: efficacy
endpoint-name: pest or weed control at 500 ppm

Cc1cccc(Sc2cnc3ccccc3c2C2=NOC[C@H](Cc3ccc(C)cc3C)N2)c1 (racemic): 70 to 79%
Cc1cc([C@@H]2CON=C(c3c(Sc4cccc(Cl)c4)nnc(C)c3C)N2)c(C)s1 (racemic): 90 to 100%

Moving on to the next compound.
QUERY: Can you share its pest or weed control at 500 ppm? I mean this compound: COc1cccc(Sc2nnc3ccccc3c2C2=NOC[C@H](c3ccc(C)s3)N2)c1 (racemic)
RESULT: 80 to 89%
